- system: Bcl-2 protein (Recombinant Human Bcl-2 Protein) (Homo sapiens, UniProt P10415)
- Construct: purchased Novus Biologicals NBP2-34889
- Sequence (P10415 whole entry): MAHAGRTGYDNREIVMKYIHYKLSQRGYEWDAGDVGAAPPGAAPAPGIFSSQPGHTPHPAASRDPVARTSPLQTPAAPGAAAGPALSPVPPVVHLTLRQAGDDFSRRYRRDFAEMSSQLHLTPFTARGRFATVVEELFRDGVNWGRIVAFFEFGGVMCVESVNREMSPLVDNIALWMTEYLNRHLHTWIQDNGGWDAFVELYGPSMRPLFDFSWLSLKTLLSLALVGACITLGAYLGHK
- test-protocol: AS-MS evaluation of binding of the Example 4 mixture library (1200 compounds/well) to Bcl-2, ASMS ratio (%)
- experimental-context: AS-MS, Example 4 mixture library, Bcl-2, replicate n = 2
recorded-metric: ASMS ratio (%) n = 2
Reply numerically in %, unit not repeated.

Supply ASMS ratio (%) n = 2 measured with Bcl-2 protein (Recombinant Human Bcl-2 Protein) (Homo sapiens, UniProt P10415) for CCOc1cccc(-c2ccc(CN3CCN(c4ccc(C(=O)NS(=O)(=O)C(C)(C)C)nn4)CC3)c3ccccc23)c1 [Compound B2L091-01] .
0.0

Quote Bcl-2 protein (Recombinant Human Bcl-2 Protein) (Homo sapiens, UniProt P10415) ASMS ratio (%) n = 2 for entry CCOc1cncc(-c2ccc(CN3CCN(c4ccc(C(=O)NS(=O)(=O)CCC(F)(F)F)nn4)CC3)c(CC)c2)c1 [Compound B2N076-01] .
0.0

Retrieve ASMS ratio (%) n = 2 on Bcl-2 protein (Recombinant Human Bcl-2 Protein) (Homo sapiens, UniProt P10415); query CCOc1cncc(-c2csc(CN3CCN(c4ccc(C(=O)NS(=O)(=O)C(C)(C)C)nn4)CC3)c2)c1 [Compound B2L094-01]
1.8

GET ASMS ratio (%) n = 2 | system: Bcl-2 protein (Recombinant Human Bcl-2 Protein) (Homo sapiens, UniProt P10415) | item: CCOc1cncc(-c2ccc(C(=O)N3CCN(c4ccc(C(=O)NS(=O)(=O)c5ccc(NCCSc6ccccc6)c(C(F)(F)F)c5)nn4)CC3)cc2C)c1 [Compound B2R004-01]
0.0

Please indicate recorded ASMS ratio (%) n = 2 of CCOc1cncc(-c2ccc(CN3CCN(c4ccc(C(=O)NS(=O)(=O)C(C)(C)C)nn4)CC3)c3ccccc23)c1 [Compound B2L092-01] measured with Bcl-2 protein (Recombinant Human Bcl-2 Protein) (Homo sapiens, UniProt P10415).
7.8

Answer briefly: ASMS ratio (%) n = 2 recorded on Bcl-2 protein (Recombinant Human Bcl-2 Protein) (Homo sapiens, UniProt P10415) for CCOc1cncc(-c2cc(CN3CCN(c4ccc(C(=O)NS(=O)(=O)C(C)(C)C)nn4)CC3)cc(OCC)c2)c1 [Compound B2L082-01]
−1.2

For Bcl-2 protein (Recombinant Human Bcl-2 Protein) (Homo sapiens, UniProt P10415), give the measured ASMS ratio (%) n = 2 of the entry CCOc1cncc(-c2csc(C(=O)N3CCN(c4ccc(C(=O)NS(=O)(=O)CCC(F)(F)F)nn4)CC3)c2)c1 [Compound B2N002-01]
0.0

Recall the reported ASMS ratio (%) n = 2 of CCOc1cncc(-c2ccc(C(=O)N3CCN(c4ccc(C(=O)NS(=O)(=O)c5ccc(NCCSc6ccccc6)c(C(F)(F)F)c5)cc4)CC3)cc2C)c1 [Compound B2R026-01] on Bcl-2 protein (Recombinant Human Bcl-2 Protein) (Homo sapiens, UniProt P10415) and write it down.
−4.6

Specify the recorded ASMS ratio (%) n = 2 for CCOc1cncc(-c2ccc(C(C)N3CCN(c4ccc(C(=O)NS(=O)(=O)CCC(F)(F)F)cc4)CC3)c(F)c2)c1 (stereo not shown) [Compound B2N100-01] , system: Bcl-2 protein (Recombinant Human Bcl-2 Protein) (Homo sapiens, UniProt P10415).
0.0

Please report the measured ASMS ratio (%) n = 2 for CCOc1cccc(-c2cc(OC)c(CN3CCN(c4ccc(C(=O)NS(=O)(=O)CCC(F)(F)F)cc4)CC3)c(OC)c2)c1 [Compound B2N059-01] tested on Bcl-2 protein (Recombinant Human Bcl-2 Protein) (Homo sapiens, UniProt P10415).
0.0

State, for Bcl-2 protein (Recombinant Human Bcl-2 Protein) (Homo sapiens, UniProt P10415), measured ASMS ratio (%) n = 2 of the molecule listed here: CCOc1cccc(-c2ccccc2CN2CCN(c3ccc(C(=O)NS(=O)(=O)CCC(F)(F)F)nn3)CC2)c1 [Compound B2N071-01]
0.0

Give ASMS ratio (%) n = 2 only, for CCOc1cccc(-c2cc(CN3CCN(c4ccc(C(=O)NS(=O)(=O)C(C)(C)C)nn4)CC3)cc(OC(C)C)c2)c1 [Compound B2L083-01] , using Bcl-2 protein (Recombinant Human Bcl-2 Protein) (Homo sapiens, UniProt P10415) data.
0.0

Lab note: Bcl-2 protein (Recombinant Human Bcl-2 Protein) (Homo sapiens, UniProt P10415) assay, enter ASMS ratio (%) n = 2 for CCOc1cncc(-c2cc(CN3CCN(c4ccc(C(=O)NS(=O)(=O)c5ccc(NCCSc6ccccc6)c(C(F)(F)F)c5)cc4)CC3)cc(C(F)(F)F)c2)c1 [Compound B2R062-01] here
0.0

----------
Exercise: for every item that follows, state its recorded AS-MS(%) N4.
- system: Bcl-2 protein (Recombinant Human Bcl-2 Protein) (Homo sapiens, UniProt P10415)
- Construct: purchased Novus Biologicals NBP2-34889
- test-protocol: AS-MS evaluation of binding of the mixture libraries of Examples 8 and 9 to Bcl-2, ASMS ratio (%), Example 11
- experimental-context: ASMS ratio, replicate N4 (additional day); mixtures obtained from Example 9, 10 uM Bcl-2 protein
Could you kindly put the unit after your number?

State, for Bcl-2 protein (Recombinant Human Bcl-2 Protein) (Homo sapiens, UniProt P10415), measured AS-MS(%) N4 of the compound listed here: CCOc1cc(C(C)C(=O)Nc2ccc(F)cc2)cc(N2CCN(c3ccc(C(=O)NS(=O)(=O)c4ccc(N[C@H](CCN5CCOCC5)CSc5ccccc5)c([N+](=O)[O-])c4)cc3)CC2)c1 (stereo partly drawn)
62.7%

// fetch AS-MS(%) N4; item: CC(C(=O)Nc1nc2ccccc2s1)c1cc(O)cc(N2CCN(c3ccc(C(=O)NS(=O)(=O)c4ccc(NCCSc5ccccc5)c([N+](=O)[O-])c4)cc3)CC2)c1 (stereo not drawn) ; system: Bcl-2 protein (Recombinant Human Bcl-2 Protein) (Homo sapiens, UniProt P10415)
39.3%

State AS-MS(%) N4 (Bcl-2 protein (Recombinant Human Bcl-2 Protein) (Homo sapiens, UniProt P10415)) of CC(C(=O)Nc1ccc(C(F)(F)F)cc1)c1cc(O)cc(N2CCN(c3ccc(C(=O)NS(=O)(=O)c4ccc(N[C@H](CCN5CCOCC5)CSc5ccccc5)c([N+](=O)[O-])c4)cc3)CC2)c1 (stereo partly drawn) .
51.0%

----------
Would you kindly list ASMS ratio (%) n = 2 for each of these compounds?
- system: Bcl-2 protein (Recombinant Human Bcl-2 Protein) (Homo sapiens, UniProt P10415)
- Construct: purchased Novus Biologicals NBP2-34889
- test-protocol: AS-MS evaluation of binding of the Example 4 mixture library (1200 compounds/well) to Bcl-2, ASMS ratio (%)
- experimental-context: AS-MS, Example 4 mixture library, Bcl-2, replicate n = 2
Phrase the answer as number then unit, nothing more needed.

Using the record for CCOc1cncc(-c2ccc(CN3CCN(c4ccc(C(=O)NS(=O)(=O)CCC(F)(F)F)cc4)CC3)cc2C)c1 , state its measured ASMS ratio (%) n = 2.
−0.7%

Provide only the value of recorded ASMS ratio (%) n = 2 for CCOc1cccc(-c2csc(CN3CCN(c4ccc(C(=O)NS(=O)(=O)c5ccc(NCCSc6ccccc6)c(C(F)(F)F)c5)cc4)CC3)c2)c1
0.0%

Find the measured ASMS ratio (%) n = 2 of CCOc1cncc(C#Cc2ccccc2C(=O)N2CCN(c3ccc(C(=O)NS(=O)(=O)CCC(F)(F)F)nn3)CC2)c1 and report it.
−0.4%

----------
- system: Bcl-2 protein (Recombinant Human Bcl-2 Protein) (Homo sapiens)
- Construct: purchased Novus Biologicals NBP2-34889
- test-protocol: AS-MS evaluation of binding of the Example 4 mixture library (1200 compounds/well) to Bcl-2, ASMS ratio (%)
- experimental-context: AS-MS, Example 4 mixture library, Bcl-2, replicate n = 2
recorded-metric: ASMS ratio (%) n = 2
Just the number in %, nothing appended.

Please report ASMS ratio (%) n = 2 for the following compound: CCOc1cncc(-c2cc(CN3CCN(c4ccc(C(=O)NS(=O)(=O)c5ccc(NCCSc6ccccc6)c(C(F)(F)F)c5)cc4)CC3)cc(OC(F)(F)F)c2)c1
−7.4

# return recorded ASMS ratio (%) n = 2 for input CCOc1cncc(-c2cc(OC)c(CN3CCN(c4ccc(C(=O)NS(=O)(=O)CCC(F)(F)F)nn4)CC3)c(OC)c2)c1
0.0

For the compound CCOc1cccc(C#Cc2cncc(C(=O)N3CCN(c4ccc(C(=O)NS(=O)(=O)CCC(F)(F)F)nn4)CC3)c2)c1 , report ASMS ratio (%) n = 2.
−0.4

----------
- system: Bcl-2 protein (Recombinant Human Bcl-2 Protein) (Homo sapiens)
- Construct: purchased Novus Biologicals NBP2-34889
- test-protocol: AS-MS evaluation of binding of the Example 4 mixture library (1200 compounds/well) to Bcl-2, ASMS ratio (%)
- experimental-context: replicate n = 1; mixture library; value belongs to the MS peak assigned to the compound
recorded-metric: ASMS ratio (%) n = 1
Express your answer in %, writing the number without its unit.

Provide ASMS ratio (%) n = 1, tested on Bcl-2 protein (Recombinant Human Bcl-2 Protein) (Homo sapiens), for CCOc1cncc(-c2ccc(CN3CCN(c4ccc(C(=O)NS(=O)(=O)C(C)(C)C)nn4)CC3)cc2C)c1 .
−1.0

Give reported ASMS ratio (%) n = 1 for CCOc1cccc(-c2ccc(CN3CCN(c4ccc(C(=O)NS(C)(=O)=O)nn4)CC3)c(CC)c2)c1 (Bcl-2 protein (Recombinant Human Bcl-2 Protein) (Homo sapiens))
0.0

Report value only: ASMS ratio (%) n = 1, Bcl-2 protein (Recombinant Human Bcl-2 Protein) (Homo sapiens), CCOc1cccc(-c2csc(C(=O)N3CCN(c4ccc(C(=O)NS(=O)(=O)C(C)(C)C)nn4)CC3)c2)c1
−67.5

Enter ASMS ratio (%) n = 1 (test system Bcl-2 protein (Recombinant Human Bcl-2 Protein) (Homo sapiens)) for CCOc1cncc(C#Cc2ccccc2CN2CCN(c3ccc(C(=O)NS(C)(=O)=O)nn3)CC2)c1
0.0

Report value only: ASMS ratio (%) n = 1, Bcl-2 protein (Recombinant Human Bcl-2 Protein) (Homo sapiens), CCOc1cccc(-c2ccc(C(=O)N3CCN(c4ccc(C(=O)NS(=O)(=O)C(C)(C)C)nn4)CC3)cc2C)c1
0.0

Enter ASMS ratio (%) n = 1 (test system Bcl-2 protein (Recombinant Human Bcl-2 Protein) (Homo sapiens)) for CCOc1cncc(-c2ccc(C(=O)N3CCN(c4ccc(C(=O)NS(=O)(=O)C(C)(C)C)nn4)CC3)c3ccccc23)c1
0.3

State, for Bcl-2 protein (Recombinant Human Bcl-2 Protein) (Homo sapiens), measured ASMS ratio (%) n = 1 of the compound listed here: CCOc1cncc(-c2ccc(CN3CCN(c4ccc(C(=O)NS(=O)(=O)C(C)(C)C)nn4)CC3)c(OC)c2)c1
0.0
